# assay_method_text: Oral drug absorption in fasted Beagle dog at 10 mg/kg dosed through intraduodenal route by LC-MS/MS method
# Format: ADME, organism-based, Canis lupus familiaris
# Set-up: dose 10 mg/kg, route intraduodenal
# study_conditions: in vivo
parameter: Fa

entry_smiles	value_reported
CC(C)CCC[C@@H](C)[C@H]1CC[C@H]2[C@@H]3CC=C4C[C@@H](OC(=O)COC(=O)c5cccc(NC(=O)[C@@H]6C[C@H](SC7=C(C(=O)OCC(F)(F)F)N8C(=O)[C@H]([C@@H](C)O)[C@H]8[C@H]7C)CN6)c5)CC[C@]4(C)[C@H]3CC[C@]12C	< 0.1%

###

# assay_method_text: AUC (0 to 8 hrs) in fasted Sprague-Dawley rat at 4.41 mg/kg dosed through intraduodenal route by LC-MS/MS method
# Format: ADME, organism-based
# Parameters: time < 8 hr, dose 4.41 mg/kg, route intraduodenal
# study_conditions: plasma
parameter: AUC(0-t) at 8 h

In [3]: df
Out[3]:
                               entry_smiles  value_reported
0  CCOC(=O)C1=C(S[C@@H]2CN[C@H](C(=O)Nc3cccc(C(=O)OCC)c3)C2)[C@H](C)[C@@H]2[C@@H]([C@@H](C)O)C(=O)N12       0.06 µM·h

###

# Test system: Rattus norvegicus
# assay_method_text: Oral bioavailability in fasted Sprague-Dawley rat assessed as ertapenem level at 10 mg/kg dosed through intraduodenal route by LC-MS/MS method
# Format: ADME, organism-based
# study_conditions: in vivo
# F per entry

entry_smiles	u	F
CC(C)C(=O)OCOC(=O)C1=C(S[C@@H]2CN[C@H](C(=O)Nc3cccc(C(=O)[O-])c3)C2)[C@H](C)[C@@H]2[C@@H]([C@@H](C)O)C(=O)N12.[Na+]	%	1.2
CC(C)C(=O)OCOC(=O)C1=C(S[C@@H]2CN[C@H](C(=O)Nc3cccc(C(=O)OCOC(=O)C(C)C)c3)C2)[C@H](C)[C@@H]2[C@@H]([C@@H](C)O)C(=O)N12	%	1.8
C[C@@H](O)[C@H]1C(=O)N2C(C(=O)OCOC(=O)C(C)(C)C)=C(S[C@@H]3CN[C@H](C(=O)Nc4cccc(C(=O)OCOC(=O)C(C)(C)C)c4)C3)[C@H](C)[C@H]12	%	0.4

###

# assay_method_text: Stability in pH 6.5 simulated gastrointestinal fluid assessed as compound remaining at 50 uM after 3 hrs by LC-MS/MS method
# Assay type: ADME
# study_conditions: read-out: Stability

entry_smiles	remaining at 3 h, 50 µM
C[C@@H](O)[C@H]1C(=O)N2C(C(=O)OCc3oc(=O)oc3C(C)(C)C)=C(S[C@@H]3CN[C@H](C(=O)Nc4cccc(C(=O)OCc5oc(=O)oc5C(C)(C)C)c4)C3)[C@H](C)[C@H]12	> 95%
C[C@@H](O)[C@H]1C(=O)N2C(C(=O)[O-])=C(S[C@@H]3CN[C@H](C(=O)Nc4cccc(C(=O)O)c4)C3)[C@H](C)[C@H]12.O.[Na+]	> 95%
CCOC(=O)c1cccc(NC(=O)[C@@H]2C[C@H](SC3=C(C(=O)O)N4C(=O)[C@H]([C@@H](C)O)[C@H]4[C@H]3C)CN2)c1	> 95%

###

# System: Canis familiaris
# assay_method_text: AUC (0 to 8 hrs) in fasted Beagle dog assessed as ertapenem level at 10 mg/kg dosed through intraduodenal route by LC-MS/MS method
# Format: ADME, organism-based, Canis lupus familiaris, Plasma
# Parameters: time < 8 hr, dose 10 mg/kg, route intraduodenal
# study_conditions: in vivo, other
parameter: AUC (µM·h)

entry_smiles	value_reported
COC(=O)C1=C(S[C@@H]2CN[C@H](C(=O)Nc3cccc(C(=O)OC)c3)C2)[C@H](C)[C@@H]2[C@@H]([C@@H](C)O)C(=O)N12	12
C[C@@H](O)[C@H]1C(=O)N2C3=C(S[C@@H]4CN[C@@H](C4)C(=O)Nc4cccc(c4)C(=O)OCc4oc(=O)oc4COC3=O)[C@H](C)[C@H]12	0.7
CCCOC(=O)C1=C(S[C@@H]2CN[C@H](C(=O)Nc3cccc(C(=O)OCCC)c3)C2)[C@H](C)[C@@H]2[C@@H]([C@@H](C)O)C(=O)N12	7.3
CCOC(=O)C1=C(S[C@@H]2CN[C@H](C(=O)Nc3cccc(C(=O)OCC)c3)C2)[C@H](C)[C@@H]2[C@@H]([C@@H](C)OC(=O)[C@@H](N)C(C)C)C(=O)N12	6.5
CC(=O)O[C@H](C)[C@H]1C(=O)N2C3=C(S[C@@H]4CN[C@@H](C4)C(=O)Nc4cccc(c4)C(=O)OCOCOC3=O)[C@H](C)[C@H]12	10.1
C[C@@H](O)[C@H]1C(=O)N2C(C(=O)OCc3oc(=O)oc3C(C)(C)C)=C(S[C@@H]3CN[C@H](C(=O)Nc4cccc(C(=O)OCc5oc(=O)oc5C(C)(C)C)c4)C3)[C@H](C)[C@H]12	0.2
CC(C)C(=O)OCOC(=O)C1=C(S[C@@H]2CN[C@H](C(=O)Nc3cccc(C(=O)OCOC(=O)C(C)C)c3)C2)[C@H](C)[C@@H]2[C@@H]([C@@H](C)O)C(=O)N12	2.2
C[C@@H](O)[C@H]1C(=O)N2C(C(=O)OCC(F)(F)F)=C(S[C@@H]3CN[C@H](C(=O)Nc4cccc(C(=O)OCC(F)(F)F)c4)C3)[C@H](C)[C@H]12	6.7
CCOC(=O)C1=C(S[C@@H]2CN[C@H](C(=O)Nc3cccc(C(=O)OCC)c3)C2)[C@H](C)[C@@H]2[C@@H]([C@@H](C)OC(=O)CC)C(=O)N12	9.1

###

The following compounds are shown together with reported remaining at 1 h, 50 µM values.
# assay_method_text: Stability in rat plasma assessed as compound remaining at 50 uM at 37 degC after 60 mins by LC-MS/MS method
# Type: ADME, cell-free
# study_conditions: read-out: Stability
parameter: remaining at 1 h, 50 µM

                               entry_smiles  value_reported
0  C[C@@H](O)[C@H]1C(=O)N2C(C(=O)OCOC(=O)C3CCCCC3)=C(S[C@@H]3CN[C@H](C(=O)Nc4cccc(C(=O)O)c4)C3)[C@H](C)[C@H]12              0%
1  CCCCCCCCOC(=O)C1=C(S[C@@H]2CN[C@H](C(=O)Nc3cccc(C(=O)OCCCCCCCC)c3)C2)[C@H](C)[C@@H]2[C@@H]([C@@H](C)O)C(=O)N12              4%
2  C[C@@H](O)[C@H]1C(=O)N2C(C(=O)[O-])=C(S[C@@H]3CN[C@H](C(=O)Nc4cccc(C(=O)O)c4)C3)[C@H](C)[C@H]12.O.[Na+]            100%
3  C[C@@H](O)[C@H]1C(=O)N2C(C(=O)OCC(F)(F)F)=C(S[C@@H]3CN[C@H](C(=O)Nc4cccc(C(=O)O)c4)C3)[C@H](C)[C@H]12              7%
4  CCOC(=O)OCOC(=O)C1=C(S[C@@H]2CN[C@H](C(=O)Nc3cccc(C(=O)O)c3)C2)[C@H](C)[C@@H]2[C@@H]([C@@H](C)O)C(=O)N12              0%
5  COC(=O)OCOC(=O)C1=C(S[C@@H]2CN[C@H](C(=O)Nc3cccc(C(=O)OCOC(=O)OC)c3)C2)[C@H](C)[C@@H]2[C@@H]([C@@H](C)O)C(=O)N12              0%

###

# assay_method_text: AUC (0 to 8 hrs) in fasted Beagle dog at 6.18 mg/kg dosed through intraduodenal route by LC-MS/MS method
# Format: ADME, organism-based, Canis lupus familiaris
# Design: time < 8 hr, dose 6.18 mg/kg, route intraduodenal
# study_conditions: plasma
parameter: AUC(0-t) at 8 h (µM·h)

                               entry_smiles  value_reported
0  CC(C)OC(=O)C1=C(S[C@@H]2CN[C@H](C(=O)Nc3cccc(C(=O)OC(C)C)c3)C2)[C@H](C)[C@@H]2[C@@H]([C@@H](C)O)C(=O)N12             1.6

###

Below, each entry is listed alongside its reported F.
# Tested on: Rattus norvegicus
# assay_method_text: Oral bioavailability in fasted Sprague-Dawley rat assessed as ertapenem and monoetser metabolites level at 10 mg/kg dosed through intraduodenal route by LC-MS/MS method
# Type: ADME, organism-based
# study_conditions: in vivo

entry_smiles	F (%)
CC(C)C(=O)OCOC(=O)C1=C(S[C@@H]2CN[C@H](C(=O)Nc3cccc(C(=O)OCOC(=O)C(C)C)c3)C2)[C@H](C)[C@@H]2[C@@H]([C@@H](C)O)C(=O)N12	1.8
C[C@@H](O)[C@H]1C(=O)N2C(C(=O)OCc3oc(=O)oc3C(C)(C)C)=C(S[C@@H]3CN[C@H](C(=O)Nc4cccc(C(=O)OCc5oc(=O)oc5C(C)(C)C)c4)C3)[C@H](C)[C@H]12	0.3
CC(C)C(=O)OCOC(=O)C1=C(S[C@@H]2CN[C@H](C(=O)Nc3cccc(C(=O)[O-])c3)C2)[C@H](C)[C@@H]2[C@@H]([C@@H](C)O)C(=O)N12.[Na+]	1.2
